Here, each record is paired with measured pIC50 data.
# Tested on: U87-sensitive
# RUN_DESCRIPTION: Cell viability (SRB or MTT), TMZ-sensitive U87 subclone
# Assay type: cell-based
# EXPERIMENTAL_PARAMETERS: 72 h, SRB, 72 hours post treatment
Field pIC50 (float): negative decimal logarithm of the concentration in molar.

COMPOUND	ASSAY_SYSTEM	pIC50
COc1cc(C2COc3c(ccc(O)c3C)C2c2ccc(O)cc2)cc(OC)c1O (racemic)	U87-sensitive	6.97

So, Cn1nnc2c(C(N)=O)ncn2c1=O [TMZ, temozolomide, reference compound] ? Its pIC50 was 3.22
